Each recorded value in this set is attributed to patent US20250027068.

Kindly supply the reported Enzyme Activity Endpoint Assay: Fc values for the records listed here.
subject-of-test: pooled human IgG (human IgG1,2,3 and 4)
One number for each entry, in ng/µL.

PRT-84 (protein) MANQEIRYSEETPYTVTSVWTKGVTPPTQFIQGEDVFHAPYKANQGWYDITKTFNGKDNLLCGAATAGNMLHWWFDQNKEYIEAYLKKHPEKQKIMFGDQELLDVRKVINTKDSQTDSKLFNYFKDKAFPNLSARRLGVMPDLVLDMFINGYYLNVGKTQTTDVNRTYQEKDKRGGIFDAVFTRGDQSKLLTSRHDFKEKSLKEISDLIKKELTEGKALGLSHTYANVRINHVINLWGADFDSEGNLKAIYVTDSDSDASIGMKKYFVGVNSSGKVAISAKEIEEDNIGAQVLGLFTLSSGQDIWNQTN : 67
PRT-482 (protein) MVTSVWTKGVTPPTDFIKGEDVFHAPYKAGQGWYDITKTFNGKDNLLCGAATAGNMLHWWFDQNKDQIEAYLKEHPEKQKIIFNNQELFDLKAAIDTKDDQTNSKLFEYFKEKAFPYLSTKHLGVFPDHVLDMFINGYRLSLTNHGPTPVKEGSKDKRGGIFDAVFTRGVQSKLLTSRHDFKEKTLKEISDLIKQELTEGKALALSHTYANVRINHVINLWGADFDSNGNLEAIYVTDSDTNASIGMKKYFVGVNSAGKVAISAKEIEDDNIGAQVLGLFTLSTGQDIWNQTNLEHHHHHH : 322
PRT-178 (protein) MANQEIRYSEVTPYHVTSVWTKGVTPPANFTQGEDVFHAPYVANQGWYDITKTFNGKDDLLCGAATAGNMLHWWFDQNKDQIKRYLEEHPEKQKIIFNNQELFDLKAAIDTKNHQLDSKLFEYFKEKAFPYLSTKHLGVFPDHVIDMFINGYRLSLTNHGPTPVKEGSKDPRGGIFDAVFTRGDQSKLLTSRHDFKEKNLKEISDLIKKELTEGKALGLSHTYANVRINHVINLWGADFDSNGNLKAIYVTDSDSNASIGMKKYFVGVNSAGKVAISAKEIKEDNIGAQVLGLFTLSTGQDSWNQTN : 196

With those in mind, consider the next protein.
Quick note, Enzyme Activity Endpoint Assay: Fc for PRT-105 (protein) MANQEIRYSEVTPYHVTSVWTKGVTPPAKFTQGEDVFHAPYVANQGWYDITKTFNGKDDLLCGAATAGNMLHWWFDQNKEEIEAYLKKHPDKQKIMFGDQELLDVRKVINTKGDQTNSELFNYFRDKAFPGLSARRIGVMPDLVLDMFINGYYLNVYKTQTTDVNRTYQEKDRRGGIFDAVFTRGDQSKLLTSRHDFKEKNLKEISDLIKKELTEGKALGLSHTYANVRINHVINLWGADFDSNGNLKAIYVTDSDSNASIGMKKYFVGVNSAGKVAISAKEIKEDNIGAQVLGLFTLSTGQDSWNQTN landed at 192
